# system_under_test: Epidermal growth factor receptor (Homo sapiens)
# test_name: EGFR binders on small-molecule microarrays, primary screen, biochemical, small-molecule microarray, 635 nm fluorescence (AID 1104);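 further: score merges 667 nm emission intensity with spot signal to noise over triplicate slides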
# condition_notes: EGFR binding, higher = more signal
Each entry gets No if its composite z-score stays under -0.1, and Yes if its composite z-score is -0.1 or above.

INSERT INTO results (compound, label) VALUES
  ('O=C1O[C@H](c2ccccc2)[C@H](c2ccccc2)N2[C@H]1[C@@H](C(=O)Nc1nc3ccccc3s1)[C@]1(C(=O)Nc3ccc(C#CC4(O)CCCCCC4)cc31)[C@H]2c1ccc(OCCO)cc1', 'Yes'),
  ('CCCC=C(CCC)[C@@H](NS(=O)(=O)c1cccs1)c1ccc(C(=O)OC)cc1', 'No');

IN: Hello, I need to know if "CO[C@H]1O[C@H](CO)[C@@H](OC(=O)Nc2ccc(Br)cc2)[C@H](OC(=O)c2cc3ccccc3[nH]2)[C@H]1OC(=O)c1cc2ccccc2[nH]1" has measured composite z-score not below -0.1. Thanks!
OUT: Yes

IN: Quick check: does Cc1ccc(C(C)CC(O)C2C=CC3C(=O)N(C)C(=O)C3N2NC(=O)OC(C)(C)C)o1 (stereo not given) have composite z-score greater than or equal to -0.1?
OUT: Yes

IN: Say whether OC([C@@H]1CC(c2ccccc2)=NO1)[C@H]1CC(c2ccccc2)=NO1 (stereo not given in full) shows composite z-score of -0.1 or more.
OUT: No

IN: # bool: composite z-score of "CCCC[C@@H]1C[C@H]1[C@@H](NC(=O)c1ccco1)c1ccc(C(=O)OC)cc1" >= -0.1
OUT: No

IN: Does composite z-score meet or surpass -0.1 for "COC(=O)c1c(CC[C@@H](CO)NC(=O)N2CCC[C@H]2Cn2cc(-c3ccccn3)nn2)oc(C(C)=O)c1C(=O)OC" ?
OUT: Yes

IN: Hello, I need to know if COCCCNC(=O)C1N=C(c2ccc(OCCCO)cc2)N(c2ccccc2)O1 (stereo not given) has measured composite z-score not below -0.1. Thanks!
OUT: Yes

IN: Entry "COC(=O)[C@@]1(Cc2ccc(OC)cc2)[C@H]2c3cc(C(=O)N4CCCC4)n(Cc4ccccc4)c3C[C@H]2CN1C(=O)c1ccccc1" : is its composite z-score no less than -0.1?
OUT: Yes

IN: Could you tell me if the measured composite z-score of "COCCn1c(C(=O)N2CCCC2)cc2c1C[C@H]1CN(C(=O)c3ccccc3)[C@@](Cc3ccc(F)cc3)(C(=O)OC)[C@@H]21" reaches -0.1 or more?
OUT: Yes

IN: Reported composite z-score reaches at least -0.1 for COc1ccc(C(O)C2C=CC3C(=O)N(c4ccccc4)C(=O)C3N2Nc2ccc(C(C)C)cc2)cc1OCc1ccccc1 (stereo not given) ?
OUT: Yes

IN: Reported composite z-score reaches at least -0.1 for C=CCC(OC(C)=O)[C@@H]1[C@@H](N(Cc2ccc(-c3cccc(C(F)(F)F)c3)o2)C(=O)Cc2ccc(F)cc2)c2cc(OCCCO)ccc2N1C(=O)Cc1ccc(OC)cc1 (stereo not given in full) ?
OUT: No

IN: Assess whether reported composite z-score for "CCCC[C@@H]1C[C@H]1[C@@H](NC(=O)c1ccco1)c1ccc(Cl)cc1" sits at -0.1 or higher.
OUT: Yes

IN: Check the entry "Cc1ccc(S[C@]2(C(=O)NCCN3CCOCC3)CC(=O)N(Cc3ccccc3Cl)[C@@H]2c2ccc(CO)cc2)cc1" : does composite z-score equal or exceed -0.1?
OUT: No

IN: Is reported composite z-score greater than or equal to -0.1 here: COc1ccc(C(=O)O[C@H]2CC[C@]3(C)C4=C(CCC3C2(C)C)[C@]2(C)CC[C@H]([C@H](C)CCCC(C)C)[C@@]2(C)CC4)cc1 (stereo not given in full)
OUT: Yes
